Test system: OVCAR-5 ovarian
Test: NCI-60 one-dose screen, 48 h
Details: 10 µM unless noted
About 83,000 compounds went through this panel and 20% of them were active in at least one assay; those are over-represented in the sample as a whole. Activity calls are given as the source filed them. How the source made its calls: active means growth percent below 10; inactive means the rest.
// allowed return values: active, inactive

Short answer needed: outcome of this test for O=C(Nc1nc(C(=O)N2CCN(C(c3ccccc3)c3ccccc3)CC2)cs1)c1ccc(NC2CCCCC2)c([N+](=O)[O-])c1 ? inactive

Same thing, different compound: CC1CN=C(c2cccc(-c3ccc(-c4ccccc4)o3)c2)N1 (stereo unspecified) active

Thanks! And Cc1cc(C(=O)Nc2cc(Nc3ncccc3-c3ncnc4nc[nH]c34)ccc2F)cc(C(F)(F)F)c1 ? inactive

Follow-up item: Cc1ccc(S(=O)(=O)n2cc(C3C(Cl)C(=O)N3c3ccc(N4CCOCC4=O)cc3)c3ccccc32)cc1 (stereo unspecified) inactive

Ok, now FC(F)(F)c1[nH]ncc1-c1nc2c(N3CCCCC3)cc3[nH]ncc3c2c2c1CCCC2 active

Entry to check: CC1(C)CCC(S(=O)(=O)c2ccc3c(c2)/C(=N\O)c2cc(S(=O)(=O)N4CCN(c5ccc(F)cc5O)CC4)ccc2-3)CC1 active

Param item: CS(=O)(=O)Nc1cncc(-c2ccc3ncnc(Nc4ccc(F)c(Cl)c4)c3c2)c1 inactive

Check C/C(C=O)=C\c1ccc2c(c1)OCO2 too. inactive

And the next one, C=C1C(=O)O[C@H]2[C@H]1CC/C(COC(=O)c1cc3cc(F)ccc3[nH]1)=C\CC[C@@]1(C)O[C@@H]21 ? active

Ok, now O=C(Nc1cccnc1Nc1ccc(Cl)cc1)c1cn(Cc2ccc(F)cc2)nn1 inactive

Next entry: C[C@@H]1O[C@@H](O[C@@H]2C[C@H](c3ccc4c(c3O)C(=O)C3=C(C4=O)[C@@]4(O)C(=O)C[C@](C)(O)C[C@@]4(O)C=C3)O[C@H](C)[C@H]2O)C[C@H](O)[C@@H]1O inactive

Quick one: CN(C)c1ccc(/C=C/C(=O)c2ccc(Nc3nc(Nc4ccc(F)cc4)nc(Nc4ccc(Cl)cc4)n3)cc2)cc1 inactive

Try O=C(/C=C/c1cccc(Cl)c1)c1cccc(OCCCCOc2cccc(C(=O)/C=C/c3cccc(Cl)c3)c2)c1 next. inactive

Also CN1CCN(CCCOC(=O)c2c3c(n4ccccc24)C(=O)c2ncccc2C3=O)CC1 , if possible. active

Same thing, different compound: S=c1[nH]c2cc(Cl)ccc2o1 inactive

Now the same for CS(=O)(=O)Cc1cnc(C2OCCO2)s1 inactive

Query Cc1ccc(-c2csc(NC(=O)N3CCN(c4cc5c(cc4F)c(=O)c(C(=O)O)cn5C4CC4)CC3)n2)cc1 next inactive

What would you report for O=C(/C=C/C12c3ccccc3C(c3ccccc31)C1C(=O)NC(=O)C12)c1ccc(F)cc1 (stereo unspecified) ? inactive

Quick one: C[C@@H](CO)[C@@H]1CC[C@]2(C(=O)N3CCN(C)CC3)CC[C@]3(C)[C@H](CC[C@@H]4[C@@]5(C)CC[C@H](O)C(C)(C)[C@@H]5CC[C@]43C)[C@@H]12 inactive

Another compound to look at: NC(=S)N/N=C/c1cn(-c2ccccc2)nc1-c1cc2ccccc2oc1=O inactive

Now consider COC(=O)/C=C1/SC(=Nc2cccc(Cl)c2)N(CCc2c[nH]c3ccc(O)cc23)C1=O . inactive

// next record CCSC1=CC(=O)c2ccccc2C1=O inactive

Quick one: C/C(=N\Nc1nc(C)cs1)c1cc2ccccc2o1 inactive

Try this compound too: CCCCCCCC/C=C\CCCCCCCCOc1ccc(CC(=O)NCC[N+](C)(C)C)cc1 inactive

Do the same for Cn1ccnc1C(=O)/C=C/c1ccc(C(=O)Nc2ccc(F)cc2)cc1 please inactive

Entry to check: CCc1cccc(Sc2cc(C(=O)N3Cc4ccc(OCCN(C)C)cc4C3)ccc2O)c1 inactive

Param item: COc1ccc2c(c1)c(-c1nonc1-c1cn(C)c3ccc(OC)cc13)cn2C inactive

Also check COC(=O)/C(CCC=C(C)C)=C1\[C@@H](OC(C)=O)C[C@@]2(C)[C@H]1CC(=O)[C@H]1[C@@]3(C)CCC(N4CCCC4)[C@@H](C)[C@@H]3CC[C@@]12C (stereo partly specified) inactive

Next up: O=C(c1ccc(Cl)cc1Cl)N1c2ccccc2Sc2ccccc21 inactive

And O=C(O)C1CN(c2cccc(Cl)c2)N(c2cccc(Cl)c2)C1=O (stereo unspecified) ? inactive

Check CCOC(=O)c1c(C)nn(CC(O)c2ccccc2)c1NC(=O)Nc1cccc(F)c1 (stereo unspecified) too. inactive

And CCN(CC)CCOc1nc2c3ccc(Cl)cc3nn2c2ccccc12 ? inactive

Let us now turn to CC1(C)CC[C@]2(C(=O)N3CCOCC3)CC[C@]3(C)C(=CC[C@@H]4[C@@]5(C)C/C(=C/c6ccncc6)C(=O)C(C)(C)[C@@H]5CC[C@]43C)[C@@H]2C1 inactive

Do the same for Cc1ccc(Nc2nc(-c3ccc(F)cc3)c(C#N)c(=O)n2C)cc1 please inactive

Now consider O=c1ccc2nc(C(F)(F)F)nn(-c3ccccc3)c-2c1 and answer again. inactive

Now this one: COc1cc(C(=O)c2c(-c3ccccc3)oc3c(OC)cccc23)cc(OC)c1O inactive
